METHOD: Phase 1 clinical trial: plasma pharmacokinetics
Format: in vivo, human
RUN CONDITIONS: human, plasma, oral, 20 mg, Cycle 1, Day 1; 20 mg QD; tau = 24 hours; cut-off March 2024; read-out: AUCtau [b]

SMILES NOTATION: CC1(C)Oc2cc(Cl)ccc2[C@@H]2OCC3(CCN(CCn4ccnc4)CC3)C[C@H]21
UNIT INFO: ng·h/mL
AUC: 76.6

----------
METHOD: Phase 1 clinical trial: plasma pharmacokinetics
Type: in vivo, human
RUN CONDITIONS: human, plasma, oral, 120 mg, Cycle 1 Day 1; 120 mg, QD; cut-off April 2023; read-out: AUC0-24 (mean)

SMILES NOTATION: CC1(C)Oc2cc(Cl)ccc2[C@@H]2OCC3(CCN(CCn4ccnc4)CC3)C[C@H]21
AUC(0-t) / ng·h/mL: 583

----------
METHOD: Phase 1 clinical trial: plasma pharmacokinetics
Format: in vivo, human
RUN CONDITIONS: human, plasma, oral, 180 mg, Cycle 1, Day 1; 180 mg QD; cut-off March 2024; read-out: Tmax [a] median value

SMILES NOTATION: CC1(C)Oc2cc(Cl)ccc2[C@@H]2OCC3(CCN(CCn4ccnc4)CC3)C[C@H]21
UNIT INFO: h
Tmax: 6

----------
METHOD: Phase 1 clinical trial: plasma pharmacokinetics
Format: in vivo, human
RUN CONDITIONS: human, plasma, oral, 80 mg, Cycle 1 Day 1; 80 mg, QD; cut-off April 2023; read-out: AUC0-24 (median)
METRIC: AUC(0-t) (ng·h/mL)

SMILES NOTATION: CC1(C)Oc2cc(Cl)ccc2[C@@H]2OCC3(CCN(CCn4ccnc4)CC3)C[C@H]21
EXPERIMENTAL RESULT: 205

----------
METHOD: Phase 1 clinical trial: plasma pharmacokinetics
Format: in vivo, human
RUN CONDITIONS: human, plasma, oral, 80 mg, Cycle 2 Day 1; 80 mg, QD; cut-off April 2023; read-out: Cmax (geometric mean)

SMILES NOTATION: CC1(C)Oc2cc(Cl)ccc2[C@@H]2OCC3(CCN(CCn4ccnc4)CC3)C[C@H]21
Cmax [ng/mL]: 58

----------
METHOD: Phase 1 clinical trial: plasma pharmacokinetics
Assay type: in vivo, human
RUN CONDITIONS: human, plasma, oral, 40 mg, Cycle 2 Day 1; 40 mg, QD; cut-off April 2023; read-out: Tmax (median)
Procedure: Summary statistics based on preliminary data were obtained for the pharmacokinetics of Compound 1 in patients receiving once-daily doses ranging from 20 mg to 240 mg (Table 5). The mean plasma concentration-time curves of Compound 1 in the once-daily dose groups ranging from 20 mg to 240 mg are shown in Figure 11. In this study, one cycle consists of 28 days, and Cycle 1 Day 1 refers to Day 1 of the first cycle. […] Accumulation was observed after repeated administration. […]

SMILES NOTATION: CC1(C)Oc2cc(Cl)ccc2[C@@H]2OCC3(CCN(CCn4ccnc4)CC3)C[C@H]21
UNIT INFO: h
Tmax: 4

----------
METHOD: Phase 1 clinical trial: plasma pharmacokinetics
Format: in vivo, human
RUN CONDITIONS: human, plasma, oral, 240 mg, Cycle 1, Day 1; 480 mg (240 mg BID); cut-off March 2024; read-out: Tmax [a] median value
Protocol: Summary statistics based on preliminary data were obtained for the pharmacokinetics of Compound 1 in patients receiving once-daily doses ranging from 20 mg to 240 mg (Table 5). The mean plasma concentration-time curves of Compound 1 in the once-daily dose groups ranging from 20 mg to 240 mg are shown in Figure 11. In this study, one cycle consists of 28 days, and Cycle 1 Day 1 refers to Day 1 of the first cycle. […] Accumulation was observed after repeated administration. […]

COMPOUND: CC1(C)Oc2cc(Cl)ccc2[C@@H]2OCC3(CCN(CCn4ccnc4)CC3)C[C@H]21 [Compound 1]
UNIT INFO: h
Tmax: 4

----------
METHOD: Phase 1 clinical trial: plasma pharmacokinetics
Format: in vivo, human
RUN CONDITIONS: human, plasma, oral, Cycle 1 Day 1; 20 mg to 240 mg once daily; cut-off April 2023; read-out: geometric mean of AUC0-24, range over all dose groups

SMILES NOTATION: CC1(C)Oc2cc(Cl)ccc2[C@@H]2OCC3(CCN(CCn4ccnc4)CC3)C[C@H]21
AUC(0-t): 76 to 1480 ng·h/mL

----------
METHOD: Phase 1 clinical trial: plasma pharmacokinetics
Format: in vivo, human
RUN CONDITIONS: human, plasma, oral, 180 mg, Cycle 2, Day 1; 180 mg QD; cut-off March 2024; read-out: Cmax,ss
METRIC: Cmax (ng/mL)

SMILES NOTATION: CC1(C)Oc2cc(Cl)ccc2[C@@H]2OCC3(CCN(CCn4ccnc4)CC3)C[C@H]21
METRIC: Cmax
UNIT INFO: ng/mL
EXPERIMENTAL RESULT: 215

----------
METHOD: Phase 1 clinical trial: plasma pharmacokinetics
Format: in vivo, human
RUN CONDITIONS: human, plasma, oral, 180 mg, Cycle 1 Day 1; 180 mg, QD; cut-off April 2023; read-out: AUC0-24 (mean)
METRIC: AUC(0-t) (ng·h/mL)

COMPOUND: CC1(C)Oc2cc(Cl)ccc2[C@@H]2OCC3(CCN(CCn4ccnc4)CC3)C[C@H]21 [Compound 1]
UNIT INFO: ng·h/mL
EXPERIMENTAL RESULT: 1420

----------
METHOD: Phase 1 clinical trial: plasma pharmacokinetics
Format: in vivo, human
RUN CONDITIONS: human, plasma, oral, 20 mg, Cycle 1 Day 1; 20 mg, QD; cut-off April 2023; read-out: Cmax (geometric mean)

SMILES NOTATION: CC1(C)Oc2cc(Cl)ccc2[C@@H]2OCC3(CCN(CCn4ccnc4)CC3)C[C@H]21
Cmax: 4 ng/mL

----------
METHOD: Phase 1 clinical trial: plasma pharmacokinetics
Assay type: in vivo, human
RUN CONDITIONS: human, plasma, oral, 80 mg, Cycle 1 Day 1; 80 mg, QD; cut-off April 2023; read-out: AUC0-24 (mean)

MOLECULE: CC1(C)Oc2cc(Cl)ccc2[C@@H]2OCC3(CCN(CCn4ccnc4)CC3)C[C@H]21 [Compound 1]
UNIT INFO: µg·h/mL
AUC(0-t): 0.268

----------
METHOD: Phase 1 clinical trial: plasma pharmacokinetics
Assay type: in vivo, human
RUN CONDITIONS: human, plasma, oral, 80 mg, Cycle 2 Day 1; 80 mg, QD; cut-off April 2023; read-out: AUC0-24 (mean)
Method: Summary statistics based on preliminary data were obtained for the pharmacokinetics of Compound 1 in patients receiving once-daily doses ranging from 20 mg to 240 mg (Table 5). The mean plasma concentration-time curves of Compound 1 in the once-daily dose groups ranging from 20 mg to 240 mg are shown in Figure 11. In this study, one cycle consists of 28 days, and Cycle 1 Day 1 refers to Day 1 of the first cycle. […] Accumulation was observed after repeated administration. […]

MOLECULE: CC1(C)Oc2cc(Cl)ccc2[C@@H]2OCC3(CCN(CCn4ccnc4)CC3)C[C@H]21 [Compound 1]
AUC(0-t) / ng·h/mL: 1190

----------
METHOD: Phase 1 clinical trial: plasma pharmacokinetics
Assay type: in vivo, human
RUN CONDITIONS: human, plasma, oral, 80 mg, Cycle 2 Day 1; 80 mg, QD; cut-off April 2023; read-out: AUC0-24 (median)
METRIC: AUC(0-t)

SMILES NOTATION: CC1(C)Oc2cc(Cl)ccc2[C@@H]2OCC3(CCN(CCn4ccnc4)CC3)C[C@H]21
EXPERIMENTAL RESULT: 1110 ng·h/mL

----------
METHOD: Phase 1 clinical trial: plasma pharmacokinetics
Format: in vivo, human
RUN CONDITIONS: human, plasma, oral, 240 mg, Cycle 1 Day 1; 240 mg, QD; cut-off April 2023; read-out: Tmax (mean)

COMPOUND: CC1(C)Oc2cc(Cl)ccc2[C@@H]2OCC3(CCN(CCn4ccnc4)CC3)C[C@H]21 [Compound 1]
Tmax (h): 3

----------
METHOD: Phase 1 clinical trial: plasma pharmacokinetics
Assay type: in vivo, human
RUN CONDITIONS: human, plasma, oral, 180 mg, Cycle 1 Day 1; 180 mg, QD; cut-off April 2023; read-out: Cmax (geometric mean)
METRIC: Cmax (ng/mL)

SMILES NOTATION: CC1(C)Oc2cc(Cl)ccc2[C@@H]2OCC3(CCN(CCn4ccnc4)CC3)C[C@H]21
UNIT INFO: ng/mL
EXPERIMENTAL RESULT: 73

----------
METHOD: Phase 1 clinical trial: plasma pharmacokinetics
Type: in vivo, human
RUN CONDITIONS: human, plasma, oral, 80 mg, Cycle 2, Day 1; 80 mg QD; cut-off March 2024; read-out: Tmax,ss [a] median value

COMPOUND: CC1(C)Oc2cc(Cl)ccc2[C@@H]2OCC3(CCN(CCn4ccnc4)CC3)C[C@H]21 [Compound 1]
Tmax [h]: 8
